Each recorded value in this set is attributed to ChEMBL document CHEMBL4118225.

EC50, Tyrosine-protein kinase JAK1 (Homo sapiens): measured values

- compound-structure: "CN1CCN(C(=O)C(C#N)=Cc2ccc(-c3nc4cnc5[nH]ccc5c4n3C3CCCCC3)o2)CC1"
  result: "> 10 µM"
- compound-structure: "N#CC(C#N)=Cc1ccc(-c2nc3cnc4[nH]ccc4c3n2C2CCCCC2)o1"
  result: "7.66 µM"

Lab note: next molecule to report on.
Note to self: EC50 of N#C/C=C/c1ccc(-c2nc3cnc4[nH]ccc4c3n2C2CCCCC2)o1 with Tyrosine-protein kinase JAK1 (Homo sapiens) was > 10 µM

###

target: Tyrosine-protein kinase BTK (Homo sapiens); assay: Inhibition of kinase tracer-05 binding to C-terminal NanoLuc tagged full length BTK (unknown origin) expressed in HEK cells by NanoBRET assay
Sequence (Q06187 whole entry): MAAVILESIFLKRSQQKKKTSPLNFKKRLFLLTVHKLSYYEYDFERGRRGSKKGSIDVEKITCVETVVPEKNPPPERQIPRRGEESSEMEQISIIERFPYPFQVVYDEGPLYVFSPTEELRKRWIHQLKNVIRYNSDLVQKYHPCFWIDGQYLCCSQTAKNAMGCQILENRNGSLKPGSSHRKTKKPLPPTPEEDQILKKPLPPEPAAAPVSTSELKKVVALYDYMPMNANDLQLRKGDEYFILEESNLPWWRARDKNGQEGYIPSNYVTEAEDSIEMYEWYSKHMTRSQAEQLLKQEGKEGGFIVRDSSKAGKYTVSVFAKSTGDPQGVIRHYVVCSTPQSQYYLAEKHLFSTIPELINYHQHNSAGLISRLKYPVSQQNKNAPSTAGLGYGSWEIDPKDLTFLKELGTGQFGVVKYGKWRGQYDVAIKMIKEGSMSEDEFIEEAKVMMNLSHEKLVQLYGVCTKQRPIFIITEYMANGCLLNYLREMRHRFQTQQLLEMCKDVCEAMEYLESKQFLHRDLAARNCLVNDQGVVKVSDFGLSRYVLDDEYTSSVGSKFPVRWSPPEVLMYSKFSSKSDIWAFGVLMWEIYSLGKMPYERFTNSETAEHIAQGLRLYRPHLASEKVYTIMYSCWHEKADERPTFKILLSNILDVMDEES
measurement-label: EC50 (µM)
Report the figure in µM without appending any unit label.

- compound-structure: "N#CC(C#N)=Cc1ccc(-c2nc3cnc4[nH]ccc4c3n2C2CCCCC2)o1"
  number: 5.79

Lab note: next compound to report on.
Record summary for N#C/C=C/c1ccc(-c2nc3cnc4[nH]ccc4c3n2C2CCCCC2)o1 : reported EC50 = 13.3
